target desc: Melanocortin receptor 3 (Homo sapiens, UniProt P41968)
Sequence (P41968 whole entry): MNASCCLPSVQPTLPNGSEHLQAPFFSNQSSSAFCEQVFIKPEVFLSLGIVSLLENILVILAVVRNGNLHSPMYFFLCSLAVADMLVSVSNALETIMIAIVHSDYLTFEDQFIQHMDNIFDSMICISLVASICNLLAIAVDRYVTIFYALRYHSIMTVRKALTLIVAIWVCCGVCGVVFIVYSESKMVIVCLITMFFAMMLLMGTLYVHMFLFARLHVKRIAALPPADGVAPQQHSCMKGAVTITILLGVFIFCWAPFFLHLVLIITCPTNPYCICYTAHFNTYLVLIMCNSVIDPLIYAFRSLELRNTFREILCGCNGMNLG
assay explanation: Activity against hMC3R transfected in HEK293 cells by intracellular cAMP accumulation
Type: functional, cell-based
Below, each of the compounds is paired with its reported %max value.
Answer as a quantity: numeral, then unit.

Field: example entries. Status: answers known.
1. CCCC[C@@H]1NC(=O)CC[C@@H](C(N)=O)NC(=O)[C@H](Cc2c[nH]c3ccccc23)NC(=O)[C@H](CCCN=C(N)N)NC(=O)[C@@H](Cc2ccccc2)NC(=O)[C@H](C(C)C)NC1=O    108%
2. CCCC[C@@H]1NC(=O)CC[C@@H](C(N)=O)NC(=O)[C@H](Cc2c[nH]c3ccccc23)NC(=O)[C@H](CCCN=C(N)N)NC(=O)[C@@H](Cc2ccccc2)NC(=O)[C@@H](CCC(N)=O)NC1=O    60%

Given the entry "CCCC[C@@H]1NC(=O)CC[C@@H](C(N)=O)NC(=O)[C@H](Cc2c[nH]c3ccccc23)NC(=O)[C@H](CCCN=C(N)N)NC(=O)[C@@H](Cc2ccc3ccccc3c2)NC(=O)[C@H](C(C)C)NC1=O" , what %max was observed with Melanocortin receptor 3 (Homo sapiens, UniProt P41968)?
0%

====

target desc: Melanocortin receptor 4 (Homo sapiens, UniProt P32245)
Sequence (P32245 whole entry): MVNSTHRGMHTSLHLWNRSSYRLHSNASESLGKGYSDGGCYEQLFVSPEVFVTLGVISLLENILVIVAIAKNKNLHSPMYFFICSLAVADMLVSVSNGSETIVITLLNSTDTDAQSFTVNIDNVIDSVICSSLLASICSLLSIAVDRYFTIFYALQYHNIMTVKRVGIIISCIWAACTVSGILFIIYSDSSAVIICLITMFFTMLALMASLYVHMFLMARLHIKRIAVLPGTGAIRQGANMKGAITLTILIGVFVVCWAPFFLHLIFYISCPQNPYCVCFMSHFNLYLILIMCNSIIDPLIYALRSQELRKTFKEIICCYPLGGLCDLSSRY
assay explanation: Inhibitory activity against hMC4R transfected in HEK293 cells
Below, each of the compounds is paired with its reported IC50 value.

Field: example entries. Status: answers known.
1. CCCC[C@@H]1NC(=O)CC[C@@H](C(N)=O)NC(=O)[C@H](Cc2c[nH]c3ccccc23)NC(=O)[C@H](CCCN=C(N)N)NC(=O)[C@@H](Cc2ccc3ccccc3c2)NC(=O)[C@H](C(C)C)NC1=O    180 nM
2. CCCC[C@@H]1NC(=O)CC[C@@H](C(N)=O)NC(=O)[C@H](Cc2c[nH]c3ccccc23)NC(=O)[C@H](CCCN=C(N)N)NC(=O)[C@@H](Cc2ccc3ccccc3c2)NC(=O)[C@H](CCC(=O)O)NC1=O    34 nM
3. CCCC[C@@H]1NC(=O)CC[C@@H](C(N)=O)NC(=O)[C@H](Cc2c[nH]c3ccccc23)NC(=O)[C@H](CCCN=C(N)N)NC(=O)[C@@H](Cc2ccc3ccccc3c2)NC(=O)[C@H](CC(=O)O)NC1=O    170 nM
4. CCCC[C@@H]1NC(=O)CC[C@@H](C(N)=O)NC(=O)[C@H](Cc2c[nH]c3ccccc23)NC(=O)[C@H](CCCN=C(N)N)NC(=O)[C@@H](Cc2ccccc2)NC(=O)[C@H](CCCC)NC1=O    600 nM
5. CCCC[C@@H]1NC(=O)CC[C@@H](C(N)=O)NC(=O)[C@H](Cc2c[nH]c3ccccc23)NC(=O)[C@H](CCCN=C(N)N)NC(=O)[C@@H](Cc2ccc3ccccc3c2)NC(=O)[C@H](CCCC)NC1=O    16 nM

Need IC50, item "CCCC[C@@H]1NC(=O)CC[C@@H](C(N)=O)NC(=O)[C@H](Cc2c[nH]c3ccccc23)NC(=O)[C@H](CCCN=C(N)N)NC(=O)[C@@H](Cc2ccc3ccccc3c2)NC(=O)[C@H](Cc2cnc[nH]2)NC1=O"
100 nM

What do we get for "CCCC[C@@H]1NC(=O)CC[C@@H](C(N)=O)NC(=O)[C@H](Cc2c[nH]c3ccccc23)NC(=O)[C@H](CCCN=C(N)N)NC(=O)[C@@H](Cc2ccccc2)NC(=O)[C@H](CCC(=O)O)NC1=O" ?
> 10000 nM
